These entries and their values trace back to the MegaScale stability set (Tsuboyama et al. 2023).

B1: 5KPH (parent)
chain: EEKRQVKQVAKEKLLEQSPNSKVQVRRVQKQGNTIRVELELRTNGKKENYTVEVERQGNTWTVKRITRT

- Variants of: B1
- test-details: folding stability dG (cDNA display proteolysis); higher = more stable
- condition-set: PBS, room temperature
Entries annotated with measured folding stability dG

input-sequence | folding stability dG (kcal/mol)
EEKRQVKQVAKEKLLEQSPNSKVQVRRVQKQGNTIRVELELRTNGKKENYTVEVERQGNTWTNKRITRT [V63N] | 0.507
EEKRQVKQVAKEKLLEQSPNSKVQVRRVQKQGNTVRVELELRTNGKKENYTVEVERQGNTWTVKRITRT [I35V] | 3.81
EEKRQVKQVNKEKLLEQSPNSKVQVRRVQKQGNTIRVELELRTNGKKENYTVEVERQGNTWTVKRITRT [A10N] | 1.88
EEKRQVKQVAKEKLLEQSPNSKVQVRRVQKQGNTIRVELELRTNGKKENYTVEVERQINTWTVKRITRT [G58I] | 2.86
EEKRQVKQVMKEKLLEQSPNSKVQVRRVQKQGNTIRVELELRTNGKKENYTVEVERQGNTWTVKRITRT [A10M] | 2.73
EEKRQVKQVAKEKLLEQSWNSKVQVRRVQKQGNTIRVELELRTNGKKENYTVEVERQGNTWTVKRITRT [P19W] | 2.15
EEKRQVKQVAKEKLLEQSPNSKVQVRRVQKQGNTIRVELVLRTNGKKENYTVEVERQGNTWTVKRITRT [E40V] | 4.23
EEKRQVKQVAKEKLLEQSPNSKVQVRRVQKQGNTIRVELELRTNGKKENYTVEVERQGNTWTVKPITRT [R65P] | 1.4
EEKRQVKQVAKEKLLEQSPNSKVQVRRVQYQGNTIRVELELRTNGKKENYTVEVERQGNTWTVKRITRT [K30Y] | 4.7
EEKRQVKQVAKEKLLEQSPNSKVQVRRVQKQGGTIRVELELRTNGKKENYTVEVERQGNTWTVKRITRT [N33G] | 3.58
EEKRQVKQVAKEKLLEQSSNSKVQVRRVQKQGNTIRVELELRTNGKKENYTVEVERQGNTWTVKRITRT [P19S] | 2.77
EEKRQVKQVAKEKLLEQSPNSKVQVRRVQKMGNTIRVELELRTNGKKENYTVEVERQGNTWTVKRITRT [Q31M] | 4.47
EEKRQVKQVAKEKLLEQSPNSKVQVRRVQKQGNTIRVELELRTNGKKENYTVEVERQGNTWTVKRITFT [R68F] | 3.53
EEKRQVKQVAKEKLLEQNPNSKVQVRRVQKQGNTIRVELELRTNGKKENYTVEVERQGNTWTVKRITRT [S18N] | 4.47
EEKRQVKQVAKEKLLEQSPNSKVEVRRVQKQGNTIRVELELRTNGKKENYTVEVERQGNTWTVKRITRT [Q24E] | 3.67
EEKRQVKQVAKEKLLPQSPNSKVQVRRVQKQGNTIRVELELRTNGKKENYTVEVERQGNTWTVKRITRT [E16P] | 2.15
EEKRQVKQVAKEKLLEQSPCSKVQVRRVQKQGNTIRVELELRTNGKKENYTVEVERQGNTWTVKRITRT [N20C] | 3.53
EEKRQVKQVAKEKLLEQSPNSKVQVRRVQKQGNGIRVELELRTNGKKENYTVEVERQGNTWTVKRITRT [T34G] | 3.44
EEKRQVKQVAKEKLLEQSPNSKVQVRRVQKQGNTIRVELELRTNGKKENYTVEVERQGNTWTVKRIHRT [T67H] | 3.62
EEKRQVKQVAKEKLLEQSPNSKVQVRRVQKQGNTIRVELELRTNGKKENMTVEVERQGNTWTVKRITRT [Y50M] | 2.58
EEKRQVKQVAKEKLLEQSPNSKVQVRRVQKQSNTIRVELELRTNGKKENYTVEVERQGNTWTVKRITRT [G32S] | 2.97
EEKRQVKQVAKGKLLEQSPNSKVQVRRVQKQGNTIRVELELRTNGKKENYTVEVERQGNTWTVKRITRT [E12G] | 3.34
EEKRQVKQVAKEKLLEQSPNSKDQVRRVQKQGNTIRVELELRTNGKKENYTVEVERQGNTWTVKRITRT [V23D] | 1.23
EEKRQVKQVAKEKLLEQSPNSKVQVRRVQKQGNTIRVELELRTNGKKENYTVEKERQGNTWTVKRITRT [V54K] | 1.28
EEKRQVKQVAKEKLLEQSPNSKVQVRRVQKQGNTIRVELELRTNGKKENYTVEVERQGNTWTVKRITQT [R68Q] | 3.73
EEKRQVKQVPKEKLLEQSPNSKVQVRRVQKQGNTIRVELELRTNGKKENYTVEVERQGNTWTVKRITRT [A10P] | 1.77
EEKRQVKQVAKEKLLEQSINSKVQVRRVQKQGNTIRVELELRTNGKKENYTVEVERQGNTWTVKRITRT [P19I] | 2.83
EEKRQVKQVAKEKLLEQSPNSKVQVRRVQKQGNTIRVELELRTNDKKENYTVEVERQGNTWTVKRITRT [G45D] | 3.57
EEKRQVKQVAKEKLLEQSPNSKVQVRRVQKQGNTIRVELELRINGKKENYTVEVERQGNTWTVKRITRT [T43I] | 3.72
EEKRQVKQVAKEKLLEQSPNSKVQVRRLQKQGNTIRVELELRTNGKKENYTVEVERQGNTWTVKRITRT [V28L] | 4.03
EEKRQVKQVAKEKLLEQSPNSKVQVRRVQLQGNTIRVELELRTNGKKENYTVEVERQGNTWTVKRITRT [K30L] | 4.03
EEKRQVKQVAKEKLLEQSPNSKVQVRRVQKQGNTIRVELELRTNGKKRNYTVEVERQGNTWTVKRITRT [E48R] | 3.35
EEKRQVKQVAKEKLLEQSPNSKVQVRRVQKQGKTIRVELELRTNGKKENYTVEVERQGNTWTVKRITRT [N33K] | 3.75
EEKRQVKQVAKEKLLEQSPNSKVQVRRVQKQDNTIRVELELRTNGKKENYTVEVERQGNTWTVKRITRT [G32D] | 3.3
EEKRQVKQVAKEKLLEQSPNSKVQVRRVQKQGNTIRVELELRTNGKKENYTVEVERNGNTWTVKRITRT [Q57N] | 3.9
EEKRQVKQVAKEKRLEQSPNSKVQVRRVQKQGNTIRVELELRTNGKKENYTVEVERQGNTWTVKRITRT [L14R] | 2.08
EEKRQVKQVAKEKLLEQSPNSKVQVRRVQDQGNTIRVELELRTNGKKENYTVEVERQGNTWTVKRITRT [K30D] | 3.8
EEKRQVKQVAKEKLLEQSPNSKVQVRRVQKQGNTIRVWLELRTNGKKENYTVEVERQGNTWTVKRITRT [E38W] | 4.29
EEKRQVKQVAYEKLLEQSPNSKVQVRRVQKQGNTIRVELELRTNGKKENYTVEVERQGNTWTVKRITRT [K11Y] | 3.32
EEKRQVKQVAKEKLLEQSPNSKVQVRRVQKQGNTIRVELELRTNGKKENYTVEVERQGNTWTVKRQTRT [I66Q] | 1.95
EEKRQVKQVAKEKLLEQSPNSKVQVRRVQKQGNTIRVELELRTNGPKENYTVEVERQGNTWTVKRITRT [K46P] | 2.63
EEKRQVKQVAKEKLLEQSPNSKVQVRRVQKSGNTIRVELELRTNGKKENYTVEVERQGNTWTVKRITRT [Q31S] | 4.03
EEKRQVKQVAKEKLLEQSPNSKVQVRRVQKQGNTIRVELELRTNGVKENYTVEVERQGNTWTVKRITRT [K46V] | 3.98
EETRQVKQVAKEKLLEQSPNSKVQVRRVQKQGNTIRVELELRTNGKKENYTVEVERQGNTWTVKRITRT [K3T] | 4.31
EEKRQVKQVAKEKLLEQSPNSKVQVRRVQKQGNTIRVELELWTNGKKENYTVEVERQGNTWTVKRITRT [R42W] | 4.57
EEKRQVKQVAKEKLLEQSPNSKVQVRRVQKQGNTIRVELELRTNGKKENYTVEVERQGNTWTVKRATRT [I66A] | 2.2
EEKRQVKQVAKEKLLEQEPNSKVQVRRVQKQGNTIRVELELRTNGKKENYTVEVERQGNTWTVKRITRT [S18E] | 3.57
EEKRQVKQVAKEKLLGQSPNSKVQVRRVQKQGNTIRVELELRTNGKKENYTVEVERQGNTWTVKRITRT [E16G] | 3.25
EEKRQVKQVAKEKLLEQSPNSKVQVRRVQKQGNTIRVELELRTNGAKENYTVEVERQGNTWTVKRITRT [K46A] | 3.65
EEKRQVKQVAKEKLLEQSPNSKVQVRRVQKQGNTIRVELELRTNGKKENYTVEVERQGNTWTVKRITAT [R68A] | 3.4
EEKRQVKQVAKEKLLEQSPNSKVQVRRVQKQGNTIRVELELRTNGKKENYTVEVERQGNTWTCKRITRT [V63C] | 2.96
EEKRQVKQVAKEKLLEQSPNSPVQVRRVQKQGNTIRVELELRTNGKKENYTVEVERQGNTWTVKRITRT [K22P] | 2.37
EEKRQVKQVAKEKLLEQSPNSKVQVRRVQKQGNTIRVELELRTNGKKDNYTVEVERQGNTWTVKRITRT [E48D] | 3.35
EEKRQVKQVAKEKLLHQSPNSKVQVRRVQKQGNTIRVELELRTNGKKENYTVEVERQGNTWTVKRITRT [E16H] | 3.17
EEKRQVKQVAKEKLLEQSPNSKVQVRRVQKQGNTIRVELELRTNGWKENYTVEVERQGNTWTVKRITRT [K46W] | 3.7
EEKRQVKQVAKEKLLEQSPNSKVQVRRVQKQGNTIRVELELRTNGKKENYTVEVERQGNPWTVKRITRT [T60P] | 1.45
EEKRQVKQVAKEKLLEQSPNSKVQVRRVQKQGNTIRVELELRTNGKKEIYTVEVERQGNTWTVKRITRT [N49I] | 4.22
EEKRQVKQVAKEKLLEQSPNSKVQVRRVQKQHNTIRVELELRTNGKKENYTVEVERQGNTWTVKRITRT [G32H] | 3.14
EEKRQVKQVAKEKLLEQSPNSKVQVRRVQHQGNTIRVELELRTNGKKENYTVEVERQGNTWTVKRITRT [K30H] | 4.05
EEKRQHKQVAKEKLLEQSPNSKVQVRRVQKQGNTIRVELELRTNGKKENYTVEVERQGNTWTVKRITRT [V6H] | 2.57
EEKRQVKQVAKEKLLEQSPNSKVQVRRVQKQGNTIRVELELQTNGKKENYTVEVERQGNTWTVKRITRT [R42Q] | 3.81
EEKRQVKQVAKEKLLEQSPNSKVQVRRVQKQGNTIRVELELRTNGKKENYTVEVERQGNTWTVKRITRS [T69S] | 3.75
EEKRQVKQPAKEKLLEQSPNSKVQVRRVQKQGNTIRVELELRTNGKKENYTVEVERQGNTWTVKRITRT [V9P] | 1.9
EEKRQVKQVAKEKLLEQSPNSKVQVREVQKQGNTIRVELELRTNGKKENYTVEVERQGNTWTVKRITRT [R27E] | 2.76
